assay: soluble fraction after stress (log2 fold change); higher = more stays soluble; pooled small domains, quantitative proteomics; settings: stress: 75 degC;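 also: 20 min heating vs room temperature control held 20 min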
soluble fraction (log2): recorded values
Output: the number by itself.

Here is how some sequences turned out for soluble fraction (log2).
Bench note: what soluble fraction (log2) did HMRLPAISYSFARKHGVVLRLDGDRPVASLREGADPAILIEVKRHLDGAMGVEKVSEAAFDQLLSTTYA show? -1.53

Bench note: what soluble fraction (log2) did HMSSGTAYATDAVNVRSGPGTSYTVLGYLSRGEKVTITGTVSNGWTQIQLPGNRLGYVSSAYLSASYPS show? -0.85

Bench note: what soluble fraction (log2) did HMIVDINDVRIDKYIADNTDYSRNLILNLIKNGDILVNDSKIKPSYKVKQGDKITINNVKTD show? 0.332

New cases:
Bench note: what soluble fraction (log2) did HMNKEKLLEMFESMSIIIVQSLEEKEQTEDRIETELFNEAKTPRYSTLTKQDIQSVIRNILITVGV show? -1.76

Bench note: what soluble fraction (log2) did HMQVSDANQLTDVVKSIIKQYPVEVEKYKSGKKALFGFFMGKVMENLKGKSNPKILKNVLTEILD show? 0.22

Bench note: what soluble fraction (log2) did HMSEEIKVPNFVGSTFEKAQALAQETGLEIARGEDVYSPDQEEGKITSQNPTADSVVSPGKLITVYVSKG show? 0.385

Bench note: what soluble fraction (log2) did HMRERLPFGFAQSKKVVLLSTESDTPKVLSVNWPSLDLYAELKRVIGRAFLLEIVSEEEFQAQVSDAYQRD show? -2.47

Bench note: what soluble fraction (log2) did HMALALDDLFDRYEQLQDQSLGDKTEEGQELRAMIRAYIEQEGLSVRVTRSTTNRELLELIEQEMEG show? -0.306

Values compiled from the domain aggregation screens of Martell et al. (2025).
